For each record, write down the corresponding IC50.
Tested on: REH;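 note: growth inhibition of REH cells determined with a cell viability read-out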
measurement.notes: cells
Format: functional, cell-based
condition.summary: Homo sapiens
Description: SANGER: Inhibition of human REH cell growth in a cell viability assay.
Numbers only, in nM.

Solved entries:
Task: Which IC50 reading was recorded for the compound `COC(=O)CNC(=O)C(=O)OC` ?
Result: 308000

Task: // query: `Cn1cncc1[C@@](N)(c1ccc(Cl)cc1)c1ccc2c(c1)c(-c1cccc(Cl)c1)cc(=O)n2C`
Result: 59.2

Task: // query: COc1cc([C@@H]2c3cc4c(cc3[C@@H](O[C@@H]3O[C@@H]5CO[C@@H](C)O[C@H]5[C@H](O)[C@H]3O)[C@H]3COC(=O)[C@H]23)OCO4)cc(OC)c1O [ETOPOSIDE]
Result: 224

Continue with the compound presented below.
Task: Which IC50 reading was recorded for the compound `C=CCc1cccc(/C=N/NC(=O)CN2CCN(Cc3ccccc3)CC2)c1O` ?
Result: 944
